From: ChEMBL document CHEMBL1133527

Field: pIC50. Provide a value for each of the compounds that follow.
TGT: GABA-A receptor; anion channel
RUN_DESCRIPTION: Tested for inhibition of specific binding of [3H]-EBOB to GABA-Gated Chloride channels of Gamma-aminobutyric acid A receptor in rat brain cortex (Potency expressed as IC50)
Give bare numbers, as −log10 of the molar value.

The cases that follow already have their pIC50 on record.
Fill in the blank: the reported pIC50 of CCCCCCC/C=C\[C@H](O)C#CC#CCCCO is ____.
5.22

Fill in the blank: the reported pIC50 of CCC[C@@H](O)/C=C/C=C/C=C/C#CC#CCCC=O is ____.
5.65

Fill in the blank: the reported pIC50 of CCC[C@@H](O)/C=C/C=C/C=C/C#CC#CCCC(=O)OC is ____.
6.38

Give me pIC50 for each of these compounds, listed below.
1. CCC[C@@H](O)/C=C/C=C/C=C/C#CC#CCCCOC(C)=O
2. CCC[C@@H](O)/C=C/C=C/C=C/C#CC#CCCC(=O)O
3. CCC[C@@H](O)/C=C/C=C/C=C/C#CC#CCCCO [CICUTOXIN]
4. CCCC(O)/C=C/C=C/C=C/C#CC#CCCCO (stereo not given)

5.96
6.52
6.27
5.70

Give me pIC50 for each of these compounds, listed below.
1. CCC[C@@H](O)/C=C/C=C/C=C/C#CC#CCCC(N)=O
2. CCCC(=O)CC/C=C/C=C/C#CC#CCCCO
3. CCCC(=O)/C=C/C=C/C=C/C#CC#CCCCO
4. CCCCC[C@H](O)/C=C/C=C/C#CC#CCCCO

[5.81, 5.44, 5.52, 5.94]

Give me pIC50 for each of these compounds, listed below.
1. C=C(C)[C@@H]1[C@H]2OC(=O)[C@@H]1[C@]1(O)C[C@H]3OC34C(=O)O[C@H]2[C@@]41C.CC(C)(O)[C@@H]1[C@H]2OC(=O)[C@@H]1[C@]1(O)C[C@H]3OC34C(=O)O[C@H]2[C@@]41C (stereo not given in full) [PICROTOXIN]
2. CCC[C@@H](O)/C=C/C=C/C=C/C#CC#CCCCOC

1: 5.88; 2: 5.17

Fill in the blank: the reported pIC50 of CCCCCCC[C@H](O)/C=C/C#CC#CCCCO is ____.
5.10

* * *

Test system: Mus musculus
RUN_DESCRIPTION: Acute toxicity against mice after ip administration
Assay type: organism-based
RUN_CONDITIONS: in vivo
QUANTITY_MEASURED: LD50 (mg kg-1 i.p.)
One number for each entry, in mg kg-1 i.p..

Fill in the blank: the reported LD50 of CCCC(=O)/C=C/C=C/C=C/C#CC#CCCCO is ____.
7.6

Fill in the blank: the reported LD50 of CCCCC[C@H](O)/C=C/C=C/C#CC#CCCCO is ____.
9.5

Fill in the blank: the reported LD50 of CCC[C@H](/C=C/C=C/C=C/C#CC#CCCCOC(C)=O)OC(C)=O is ____.
15.7

Give me LD50 for each of these compounds, listed below.
1. CCCC(O)/C=C/C=C/C=C/C#CC#CCCCO (stereo not drawn)
2. CCC[C@@H](O)/C=C/C=C/C=C/C#CC#CCCC=O

1. 38.6
2. 4.9

* * *

Tested on: Mus musculus
RUN_DESCRIPTION: Acute toxicity against mice after ip administration
Assay type: organism-based
RUN_CONDITIONS: in vivo
QUANTITY_MEASURED: LD50 (mg kg-1 i.p.)
Answers are plain numbers, in mg kg-1 i.p..

Form field - read-out: LD50; system: Mus musculus; submitted item: CCC[C@@H](O)/C=C/C=C/C=C/C#CC#CCCC(=O)O
0.76

Form field - read-out: LD50; system: Mus musculus; submitted item: CCC[C@@H](O)/C=C/C=C/C=C/C#CC#CCCC(=O)OC
1.6

Form field - read-out: LD50; system: Mus musculus; submitted item: CCCCNC(=O)CCC#CC#C/C=C/C=C/C=C/[C@H](O)CCC
4.9

Let us move to another entry and its LD50.
Form field - read-out: LD50; system: Mus musculus; submitted item: CCC[C@@H](O)/C=C/C=C/C=C/C#CC#CCCC(N)=O
1.1

* * *

Field: LD50. Provide a value for each of the compounds that follow.
Tested on: Mus musculus
RUN_DESCRIPTION: Acute toxicity against mice after ip administration
Type: organism-based
RUN_CONDITIONS: in vivo

The cases that follow already have their LD50 on record.
Fill in the blank: the reported LD50 of CCCC#CC#C/C=C/C=C/[C@@H](O)CCCCC is ____.
> 97.6 mg kg-1 i.p.

Fill in the blank: the reported LD50 of CCCCCCC/C=C\[C@H](O)C#CC#CCCCO is ____.
> 393 mg kg-1 i.p.

Fill in the blank: the reported LD50 of CCCCCC/C=C/C=C/C#CC#CCCCO is ____.
> 37.8 mg kg-1 i.p.

New cases:
Fill in the blank: the reported LD50 of CCCCCCC/C=C\CC#CC#CCCCO is ____.
> 24.6 mg kg-1 i.p.
